Attribution: patent US20230416363A1

molecular target: T1, hPD-1-Fc (human, UniProt Q15116 25-167); assay: SPR Biacore, hPD1-Fc
T1 construct: domain: IgV domain; also called human PD-1-Fc; not shown: human IgG1 Fc
T1 sequence (Q15116 25-167 limits assumed): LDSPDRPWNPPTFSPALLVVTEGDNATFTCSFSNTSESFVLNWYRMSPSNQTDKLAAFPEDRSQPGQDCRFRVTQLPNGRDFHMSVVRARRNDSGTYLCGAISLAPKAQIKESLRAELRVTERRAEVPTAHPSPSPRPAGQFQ
Entries and their kon
Value expressed in M⁻¹ s⁻¹; do not type the unit.

Please review the entries below; each comes with its answer.
binder="m3A7 (antibody, V domains shown, R3A9 derivative; also called 7115C) VH: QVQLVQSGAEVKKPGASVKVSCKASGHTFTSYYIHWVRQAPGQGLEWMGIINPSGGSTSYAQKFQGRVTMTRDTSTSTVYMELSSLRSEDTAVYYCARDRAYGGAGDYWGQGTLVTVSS VL: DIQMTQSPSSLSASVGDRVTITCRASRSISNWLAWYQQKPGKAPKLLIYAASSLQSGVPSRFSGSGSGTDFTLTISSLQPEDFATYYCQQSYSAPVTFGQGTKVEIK" parameter=kon measured_number=171000
binder="m2A1 (antibody, V domains shown, R3A9 derivative; also called m2AM (apparent misprint)) VH: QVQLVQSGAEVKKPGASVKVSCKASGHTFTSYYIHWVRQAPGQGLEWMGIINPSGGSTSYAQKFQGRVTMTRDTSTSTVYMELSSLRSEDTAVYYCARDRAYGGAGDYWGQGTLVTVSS VL: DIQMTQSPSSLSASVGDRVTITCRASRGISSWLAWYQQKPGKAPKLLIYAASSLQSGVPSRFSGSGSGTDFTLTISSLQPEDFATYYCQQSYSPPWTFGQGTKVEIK" parameter=kon measured_number=240000
binder="38B2 (antibody, V domains shown, 24H9 derivative, IgG; also called 780_54; hPD1 Ab (38B2)) VH: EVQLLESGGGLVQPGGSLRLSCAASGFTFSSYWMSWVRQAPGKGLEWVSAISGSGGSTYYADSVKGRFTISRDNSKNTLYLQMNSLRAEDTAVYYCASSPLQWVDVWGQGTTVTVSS VL: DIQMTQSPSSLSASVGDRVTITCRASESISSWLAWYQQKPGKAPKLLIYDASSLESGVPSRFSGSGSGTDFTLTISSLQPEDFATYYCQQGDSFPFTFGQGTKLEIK" parameter=kon measured_number=221000
binder="m4D1 (antibody, V domains shown, R3A9 derivative) VH: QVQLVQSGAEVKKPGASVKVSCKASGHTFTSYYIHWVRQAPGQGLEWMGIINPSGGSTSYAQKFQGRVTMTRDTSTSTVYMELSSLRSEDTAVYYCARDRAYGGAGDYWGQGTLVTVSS VL: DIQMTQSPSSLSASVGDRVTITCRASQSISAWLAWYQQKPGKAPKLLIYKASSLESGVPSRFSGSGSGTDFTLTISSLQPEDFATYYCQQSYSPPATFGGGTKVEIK" parameter=kon measured_number=58300

Please find the next binder below.
In: Data request, read-out kon, for m2C1 (antibody, V domains shown, R3A9 derivative; also called m3CM (apparent misprint)) VH: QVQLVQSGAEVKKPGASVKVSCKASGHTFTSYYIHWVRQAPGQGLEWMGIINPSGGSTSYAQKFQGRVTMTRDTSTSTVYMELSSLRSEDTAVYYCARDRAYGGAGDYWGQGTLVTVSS VL: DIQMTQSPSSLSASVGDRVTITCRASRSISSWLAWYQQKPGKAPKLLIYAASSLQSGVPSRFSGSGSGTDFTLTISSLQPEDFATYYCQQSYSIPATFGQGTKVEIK
Out: 126000
